# test system: T1, Bacillus stearothermophilus DnaB helicase (B. stearothermophilus, UniProt Q9X4C9 1-454)
# T1 sequence (looked up): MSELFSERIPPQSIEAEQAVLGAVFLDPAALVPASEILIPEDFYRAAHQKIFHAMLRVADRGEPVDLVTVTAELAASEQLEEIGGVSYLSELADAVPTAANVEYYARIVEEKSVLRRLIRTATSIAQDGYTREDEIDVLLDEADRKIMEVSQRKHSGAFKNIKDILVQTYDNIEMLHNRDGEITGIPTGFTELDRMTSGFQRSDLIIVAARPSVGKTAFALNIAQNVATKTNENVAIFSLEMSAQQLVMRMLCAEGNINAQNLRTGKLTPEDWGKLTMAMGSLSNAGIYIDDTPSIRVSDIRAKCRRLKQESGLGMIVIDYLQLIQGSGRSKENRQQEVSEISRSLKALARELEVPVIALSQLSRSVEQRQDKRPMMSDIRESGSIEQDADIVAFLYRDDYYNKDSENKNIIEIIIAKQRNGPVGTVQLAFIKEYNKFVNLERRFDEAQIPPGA
# test name: SPR
Where no end group is shown, it is not given here. The star is where a group is joined. Biotin = O=C1N[C@H]2[C@H](CS[C@H]2CCCCC(=O)*)N1
recorded endpoint: Kd

Given the entry Biotin-SGMEPIGRSLQGVTGRPDFQ [N-terminally biotinylated DnaI-N-peptide (DnaI residues 1-18, preceded by biotin-Ser-Gly)] , report its measured Kd.
≥ 50 µM
